tested on: rice; assay: Inhibition of rice, safening agent and butachlor applied to soil surface, flooded pots (Example 18, Table IV); assay type: in vivo; details: safening agent 1.12 kg/h + butachlor 0.07 kg/h; ~21 days; mean of two replicates
Each record here notes measured % Inhibition, Rice.
Respond with the bare value in %.

CCOC(=O)c1sc(Cl)nc1-c1ccc(Cl)cc1 [Example 4]
0
CCOC(=O)c1sc(Oc2ccc(Cl)cc2Cl)nc1-c1ccccc1
15
CCOC(=O)c1sc(OCC)nc1-c1ccccc1 [Example 8]
30

I'd like to know its % Inhibition, Rice. The molecule in question is O=C(O)c1sc(Cl)nc1-c1ccccc1
0
